- Tested on: Escherichia coli
- Test Protocol: Antimicrobial activity against Escherichia coli O157:H7 incubated overnight by microdilution method
- Format: functional
Square brackets hold non-standard residues; d marks the D form. Peptide text beside a SMILES is read from it. hArg = N=C(N)NCCCC[C@H](N)C(=O)O; Orn = NCCC[C@H](N)C(=O)O
Recorded measurements of MIC, one per entry
Write the number in µM without appending the unit.

# count of solved cases: 3
- N=C(N)NCCC[C@H](NC(=O)[C@H](CCCNC(=N)N)NC(=O)[C@H](Cc1c[nH]c2ccccc12)NC(=O)[C@H](Cc1c[nH]c2ccccc12)NC(=O)[C@H](CCCCN)NC(=O)[C@H](Cc1c[nH]c2ccccc12)NC(=O)[C@H](Cc1c[nH]c2ccccc12)NC(=O)[C@H](CCCNC(=N)N)NC(=O)[C@@H](N)CCCCN)C(N)=O: 2.5
- CC[C@H](C)[C@H](NC(=O)[C@H](Cc1c[nH]c2ccccc12)NC(=O)[C@H](CCCN)NC(=O)[C@H](Cc1c[nH]c2ccccc12)NC(=O)[C@H](Cc1c[nH]c2ccccc12)NC(=O)[C@H](CCCN)NC(=O)[C@@H](N)CCCN)C(=O)N[C@@H](CCCN)C(=O)N[C@@H](Cc1c[nH]c2ccccc12)C(N)=O (H-[Orn][Orn]WW[Orn]WI[Orn]W-NH2): 1.25
- CC[C@H](C)[C@H](NC(=O)[C@H](Cc1c[nH]c2ccccc12)NC(=O)[C@H](CCCN)NC(=O)[C@H](Cc1c[nH]c2ccccc12)NC(=O)[C@H](Cc1c[nH]c2ccccc12)NC(=O)[C@H](CCCCNC(=N)N)NC(=O)[C@@H](N)CCCN)C(=O)N[C@@H](CCCCNC(=N)N)C(=O)N[C@@H](Cc1c[nH]c2ccccc12)C(N)=O (H-[Orn][hArg]WW[Orn]WI[hArg]W-NH2): 1.25

Now turn to the next compound.
Request: Given the compound N=C(N)NCCCC[C@H](NC(=O)[C@H](CCCCNC(=N)N)NC(=O)[C@H](Cc1c[nH]c2ccccc12)NC(=O)[C@@H](Cc1c[nH]c2ccccc12)NC(=O)[C@@H](CCN)NC(=O)[C@@H](Cc1c[nH]c2ccccc12)NC(=O)[C@H](Cc1c[nH]c2ccccc12)NC(=O)[C@@H](CCCCNC(=N)N)NC(=O)[C@@H](N)CCN)C(N)=O , what is its reported MIC?
Result: 2.5

====

Recorded measurements of MIC, one per entry
- Test system: Escherichia coli
- Test Protocol: Antimicrobial activity against Escherichia coli O157:H7 incubated overnight by microdilution method
- Type: functional
Square brackets hold non-standard residues; d marks the D form. Peptide text beside a SMILES is read from it. hArg = N=C(N)NCCCC[C@H](N)C(=O)O; Dab = NCC[C@H](N)C(=O)O
Write the number in µM without appending the unit.

# count of solved cases: 3
* CC[C@H](C)[C@H](NC(=O)[C@H](Cc1c[nH]c2ccccc12)NC(=O)[C@H](CCN)NC(=O)[C@H](Cc1c[nH]c2ccccc12)NC(=O)[C@H](Cc1c[nH]c2ccccc12)NC(=O)[C@H](CCN)NC(=O)[C@@H](N)CCN)C(=O)N[C@@H](CCN)C(=O)N[C@@H](Cc1c[nH]c2ccccc12)C(N)=O (H-[Dab][Dab]WW[Dab]WI[Dab]W-NH2) | 2.5
* NCC[C@H](NC(=O)[C@H](CCN)NC(=O)[C@H](Cc1c[nH]c2ccccc12)NC(=O)[C@H](Cc1c[nH]c2ccccc12)NC(=O)[C@H](CCN)NC(=O)[C@H](Cc1c[nH]c2ccccc12)NC(=O)[C@H](Cc1c[nH]c2ccccc12)NC(=O)[C@H](CCN)NC(=O)[C@@H](N)CCN)C(N)=O (H-[Dab][Dab]WW[Dab]WW[Dab][Dab]-NH2) | 2.5
* N=C(N)NCCC[C@@H](N)C(=O)N[C@H](CCCNC(=N)N)C(=O)N[C@H](Cc1c[nH]c2ccccc12)C(=O)N[C@H](Cc1c[nH]c2ccccc12)C(=O)N[C@H](CCCCN)C(=O)N[C@H](Cc1c[nH]c2ccccc12)C(=O)N[C@H](Cc1c[nH]c2ccccc12)C(=O)N[C@H](CCCNC(=N)N)C(=O)N[C@H](CCCCN)C(N)=O | 1.25

Request: Given the molecule CC[C@H](C)[C@H](NC(=O)[C@H](Cc1c[nH]c2ccccc12)NC(=O)[C@H](CCCCN)NC(=O)[C@H](Cc1c[nH]c2ccccc12)NC(=O)[C@H](Cc1c[nH]c2ccccc12)NC(=O)[C@H](CCCNC(=N)N)NC(=O)[C@@H](N)CCCCN)C(=O)N[C@@H](CCCNC(=N)N)C(=O)N[C@@H](Cc1c[nH]c2ccccc12)C(N)=O , what is its reported MIC?
Result: 1.25

Request: Can you handle N=C(N)NCCC[C@H](NC(=O)[C@H](Cc1c[nH]c2ccccc12)NC(=O)[C@H](Cc1c[nH]c2ccccc12)NC(=O)[C@H](CCCCN)NC(=O)[C@@H](N)CCCNC(=N)N)C(=O)N[C@@H](Cc1c[nH]c2ccccc12)C(=O)N[C@@H](Cc1c[nH]c2ccccc12)C(=O)N[C@@H](CCCCN)C(=O)N[C@@H](CCCCN)C(N)=O (H-RKWWRWWKK-NH2) next?
Result: 2.5

Request: Can you handle CC[C@H](C)[C@H](NC(=O)[C@H](Cc1c[nH]c2ccccc12)NC(=O)[C@H](CCCCNC(=N)N)NC(=O)[C@H](Cc1c[nH]c2ccccc12)NC(=O)[C@H](Cc1c[nH]c2ccccc12)NC(=O)[C@H](CCCCNC(=N)N)NC(=O)[C@@H](N)CCCCNC(=N)N)C(=O)N[C@@H](CCCCNC(=N)N)C(=O)N[C@@H](Cc1c[nH]c2ccccc12)C(N)=O (H-[hArg][hArg]WW[hArg]WI[hArg]W-NH2) next?
Result: 2.5

# credit: ChEMBL document CHEMBL3797163
